Test system: MDA-MB-231 breast
PROCEDURE TEXT: NCI tumour cell line growth inhibition, 48 h
Listing: TGI of selected molecules

Look over these answered cases.
- MOLECULE: "O=C(Cc1ccc(/C=C/C(=O)c2ncc[nH]2)cc1)Nc1ccc(Br)cc1"
  SYSTEM: "MDA-MB-231 breast"
  DATA VALUE: "13.4 µM"
- MOLECULE: "CCOC(=O)/C=C(/C(=O)OCC)n1c(=O)c(C)cn(C2CC(N=[N+]=[N-])C(CO)O2)c1=O (stereo not drawn)"
  SYSTEM: "MDA-MB-231 breast"
  DATA VALUE: "46 µM"
- MOLECULE: "COc1ccc2[nH]c(C(=O)N3CC(CCl)c4ccc([N+](=O)[O-])cc43)cc2c1 (stereo not drawn)"
  SYSTEM: "MDA-MB-231 breast"
  DATA VALUE: "> 100 µM"
- MOLECULE: "c1ccc(-c2n(Cc3ccc4ccccc4n3)c3ccccc3[n+]2Cc2ccc3ccccc3n2)cc1"
  SYSTEM: "MDA-MB-231 breast"
  DATA VALUE: "1.3 µM"

# TGI (molecule: "CSc1nc(Cl)c(Br)c(Nc2c[nH]c(=O)[nH]c2=O)n1" ) is 30.1 µM

# TGI (molecule: CC1NOC(NS(=O)(=O)c2ccc(N=Nc3c(O)c(C(=O)O)cc4ccccc34)cc2)C1C (stereo not drawn) ) is > 100 µM

# TGI (molecule: "CCN(CC)c1ccc(/C=C/C(=O)c2cccc(NS(C)(=O)=O)c2)cc1" ) is > 100 µM

* * *

Listing: TGI of selected compounds
System: UACC-257 melanoma
PROCEDURE TEXT: NCI tumour cell line growth inhibition, 48 h

- COMPOUND: "Cc1nnc(N)nc1/C=C\\c1cccs1"
  DATA VALUE: "> 100 µM"
- COMPOUND: "N#Cc1cc2cc3c4c(c2oc1=O)CCCN4CCC3"
  DATA VALUE: "> 100 µM"
- COMPOUND: "COc1cc(Nc2ncc3c(n2)-c2ccc(Cl)cc2C(c2c(F)cccc2OC)=NC3)ccc1C(=O)O"
  DATA VALUE: "> 92.5 µM"

# TGI (compound: "COc1cc2ccc(CC#N)cc2cc1OC" ) is > 100 µM

# TGI (compound: "O=C(/C=C/c1cccs1)c1ccsc1" ) is 52.3 µM

* * *

Test system: MCF7 breast
PROCEDURE TEXT: NCI tumour cell line growth inhibition, 48 h; in the data active means GI50 below about 0.43 µM; inactive means the rest
Select the correct class. Options are 1 (active), 0 (inactive) and nothing else.

// known answers, use as guide
- COMPOUND: "COc1ccc(C(=O)Nc2ncc(Cc3ccc(F)cc3)s2)cc1"
  CLASS: 1
- COMPOUND: "O=C(Cc1ccc(/C=C/C(=O)c2ncc[nH]2)cc1)Nc1ccc(Br)cc1"
  CLASS: 0
- COMPOUND: "COc1ccc(/C=C/c2nc(N3CCOCC3)c3cc(F)c(F)cc3n2)cc1OC"
  CLASS: 0

Query: Record request — test call for O=C1CC(c2ccccc2)Cc2nc3ccc(Cl)cc3cc21 (centres undefined)
Reply: 0

Query: Record request — test call for "CC(C)[C@@H](C(=O)O[C@@H]1/C=C/C(=O)O[C@@H](C)CCC/C=C/[C@@H]2C[C@H](O)C[C@H]21)[N+](C)(C)C"
Reply: 0

Query: Record request — test call for COc1cc(C2c3cc4c(cc3C3OC(=O)C2C3CO)OCO4)cc(OC)c1OC (centres undefined)
Reply: 1

Query: Record request — test call for "C[C@@H]1CN(Cc2ccc(/C=C/c3n[nH]c4ccc5nc(-c6cn[nH]c6C(F)(F)F)c6c(c5c34)CCCC6)cc2)C[C@H](C)O1"
Reply: 0

Query: Record request — test call for O=S(=O)(NC(=S)Nc1ccccc1)c1ccc(N2N=C3c4ccccc4CC3C2c2ccc(Cl)cc2)cc1 (centres undefined)
Reply: 0

Query: Record request — test call for "O=C(O)c1cn(C2CC2)c2cc(N3CCN(S(=O)(=O)c4ccc(Cl)c(Cl)c4)CC3)c(F)cc2c1=O"
Reply: 0

Query: Record request — test call for "CC(=O)NNC(=O)c1nn(-c2ccc(Cl)cc2)cc1OC(C)=O"
Reply: 0

Query: Record request — test call for "Cc1cc(N(CCCNc2ccnc3cc(Cl)ccc23)Cc2cccs2)nc(Cl)n1"
Reply: 0

Query: Record request — test call for "Cc1sc2nc(-c3ccccn3)c(/C=N/N=C(N)N)n2c1C"
Reply: 0

Query: Record request — test call for "Cc1cc(-c2ccccc2)c(C)n1Cc1ccc(Cl)cc1"
Reply: 0

Query: Record request — test call for CC(=O)OC1CCC2(C)C(CCC3C2CCC2(C)C(C4=CC(=O)OC4)CCC32)C1 (centres undefined)
Reply: 0

Query: Record request — test call for "COc1ccc(-c2nnc3n(C)c(=O)c4ccccc4n23)cc1O"
Reply: 1

Query: Record request — test call for CC12C=CC(C)(O1)C1C2c2ccccc2S1(=O)=O (centres undefined)
Reply: 0

Query: Record request — test call for "Cc1cc(C)cc(Nc2nccc(-c3c(-c4ccc(F)cc4)ncn3C3CCNCC3)n2)c1"
Reply: 0

Query: Record request — test call for "Cc1ccc(C(=O)Nc2ccc(CN3CCN(C)CC3)c(C(F)(F)F)c2)cc1C#Cc1cncc2ncccc12"
Reply: 0

Query: Record request — test call for "COc1cc(/C=C/C(=O)c2c(C)n([O-])c3cc(C)c(C)cc3[n+]2=O)cc(OC)c1OC"
Reply: 0

* * *

Tested on: COLO 205 colon
PROCEDURE TEXT: NCI tumour cell line growth inhibition, 48 h
Listing: TGI of selected molecules

- MOLECULE: "O=C1c2ccccc2C(=O)N1C(=S)c1ccccc1"
  TGI: "> 100 µM"

# TGI (molecule: Cc1ccc(S(=O)(=Nc2ccccc2)C(C(C)C)C(C)(C)Cl)cc1 (centres undefined) ) is 7.56 µM

# TGI (molecule: COC1=NN2C(OC)(c3ccccc3)c3c(-c4ccccc4)sc(-c4ccccc4)c3C2(c2ccccc2)S1 (centres undefined) ) is > 100 µM

# TGI (molecule: CC(NC(=O)C(C)C(=O)NCc1ccc(C(F)(F)F)cc1)C(N)=O (centres undefined) ) is > 100 µM

* * *

Tested on: BT-549 breast
PROCEDURE TEXT: NCI tumour cell line growth inhibition, 48 h
VALUE TYPE: TGI (µM)
Lab book: enter the figure in µM, no units written.

Look over these answered cases.
- STRUCTURE NOTATION: "O=C1C=C(N2CC2)c2ccccc2C1=O"
  SYSTEM: "BT-549 breast"
  TGI (µM): 2.73
- STRUCTURE NOTATION: "c1ccc(-c2n(Cc3ccc4ccccc4n3)c3ccccc3[n+]2Cc2ccc3ccccc3n2)cc1"
  SYSTEM: "BT-549 breast"
  TGI (µM): 1.32
- STRUCTURE NOTATION: "N#CC1N(C(=O)c2ccc(F)cc2)c2ccccc2N1C(=O)c1ccc(F)cc1"
  SYSTEM: "BT-549 breast"
  TGI (µM): 77.3
- STRUCTURE NOTATION: "O=C(Cc1ccc(/C=C/C(=O)c2ncc[nH]2)cc1)Nc1ccc(Br)cc1"
  SYSTEM: "BT-549 breast"
  TGI (µM): 4.04

Could you now look at the following compound, please?
# TGI (compound: "O=C(c1ccc(Cl)cc1)N(Cc1cccnc1)C(=S)N(Cc1cccnc1)C(=O)c1ccc(Cl)cc1" ) is 51

* * *

System: SF-539 CNS
PROCEDURE TEXT: NCI tumour cell line growth inhibition, 48 h
VALUE TYPE: TGI

Look over these answered cases.
- COMPOUND: "O=C([C@H](O)[C@@H](O)c1ccc(Br)cc1)C12CC3CC(CC(C3)C1)C2"
  SYSTEM: "SF-539 CNS"
  TGI: "> 28.7 µM"
- COMPOUND: "CNC1=C(C)C(=O)C(C)=C(C(C)(C)CC(=O)n2cc(F)c(=O)[nH]c2=O)C1=O"
  SYSTEM: "SF-539 CNS"
  TGI: "> 100 µM"
- COMPOUND: "CCN(CC)C(=O)c1c(N2CCOCC2)cc(N(CC)CC)oc1=O"
  SYSTEM: "SF-539 CNS"
  TGI: "> 100 µM"
- COMPOUND: "COc1ccc2nc(-c3ccccc3)cc(Nc3ccc(/C(C)=N/O)cc3)c2c1"
  SYSTEM: "SF-539 CNS"
  TGI: "3.05 µM"
- COMPOUND: "COC(=O)C[C@H](COCc1ccccc1)NC(=O)C[C@H](COCc1ccccc1)NC(=O)C[C@H](COCc1ccccc1)NC(=O)OC(C)(C)C"
  SYSTEM: "SF-539 CNS"
  TGI: "> 100 µM"
- COMPOUND: "CCOC(=O)Nc1nc2c(F)c(F)c(F)cc2s1"
  SYSTEM: "SF-539 CNS"
  TGI: "98.2 µM"

# TGI (compound: "CCCCNC(=S)/N=C/c1c(O)c2ccccc2oc1=O" ) is > 100 µM

# TGI (compound: O=C1C=CC2(O[C@@H](Cc3ccccc3)[C@H](Cc3ccccc3)O2)C(SC(=O)c2ccccc2)C1 (stereo partly drawn) ) is 3.04 µM
